- Assay system: Histone-lysine N-methyltransferase SETD7 (Homo sapiens) (UniProt Q8WTS6)
- Sequence (Q8WTS6 whole entry): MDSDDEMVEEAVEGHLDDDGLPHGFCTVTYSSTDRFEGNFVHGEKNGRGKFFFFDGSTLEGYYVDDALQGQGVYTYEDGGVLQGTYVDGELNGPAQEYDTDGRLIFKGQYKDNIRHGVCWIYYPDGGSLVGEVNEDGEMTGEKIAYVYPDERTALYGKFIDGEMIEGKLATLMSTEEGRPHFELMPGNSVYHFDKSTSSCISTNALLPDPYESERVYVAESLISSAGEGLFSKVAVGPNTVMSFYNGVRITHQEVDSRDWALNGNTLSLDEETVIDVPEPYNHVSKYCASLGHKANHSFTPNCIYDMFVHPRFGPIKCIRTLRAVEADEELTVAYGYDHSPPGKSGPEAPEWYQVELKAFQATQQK
- Experimental details: Inhibition of human recombinant SET7/9 in cell free system assessed as monomethylation of histone H3 Lys4 residue after 1 hr in presence of 2 uM AdoMet
Activity calls are given as the source filed them. No cut-off for these calls is given here.
A correct response names exactly one class from active, inactive

Nc1ncnc2c1ncn2[C@@H]1O[C@H](CN(CCNCCc2ccccc2)CC[C@H](N)C(=O)O)[C@@H](O)[C@H]1O: active

Fill in: this test's call for CCCCCCN(CC[C@H](N)C(=O)O)C[C@H]1O[C@@H](n2cnc3c(N)ncnc32)[C@H](O)[C@@H]1O is ___ inactive

Fill in: this test's call for CCCNCCN(CC[C@H](N)C(=O)O)C[C@H]1O[C@@H](n2cnc3c(N)ncnc32)[C@H](O)[C@@H]1O is ___ active

Fill in: this test's call for CCCCCCNCCN(CC[C@H](N)C(=O)O)C[C@H]1O[C@@H](n2cnc3c(N)ncnc32)[C@H](O)[C@@H]1O is ___ active

Fill in: this test's call for CNCCN(CC[C@H](N)C(=O)O)C[C@H]1O[C@@H](n2cnc3c(N)ncnc32)[C@H](O)[C@@H]1O is ___ active

The reported numbers originate from ChEMBL document CHEMBL1287732.
